- assay-details: probe aXIP binding to arrayed compounds – biochemical, NeuroSMM set, 635/667 nm fluorescence, primary screen (AID 1119);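 also: probe is the protein aXip251-270 applied at 1 µg/mL to compound-printed slides; binding of probe to printed compounds measured as 667 nm fluorescence plus signal to noise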
- experimental-conditions: small-molecule microarray, higher = more signal, called active from +8 up or from −8 down
metric-name: composite Z-score
Answers are plain numbers.

Solved cases (5 shown):
INSERT INTO results (molecule, numeric_readout) VALUES
  ('O=C1C2C=CC(C(O)C3CC=CCC3)N(Nc3ccccc3)C2C(=O)N1c1ccccc1 (stereo not drawn)', 2.06),
  ('COC(=O)C1(CC(C)C)C=C2C(=C(c3ccccc3)C(=O)C2C)CN1 (stereo not drawn)', 0.465),
  ('COc1cc2c(cc1O)C=[N+](Cc1sc3ccccc3c1Cl)CC2', 0.0375),
  ('CC1=C2[C@@H](CCc3ccccc3)OB(O)C[C@@H]2[C@@H]2C(=O)N(Cc3ccccc3)C(=O)[C@@H]2C1', 0.831),
  ('COc1ccc([Si](C)(C)[C@@H]2[C@@H](CCO)O[C@]3(C(=O)N(Cc4cccc(NC(=O)[C@H](C)O)c4)c4ccccc43)[C@H]2C)cc1', 0.234);

For each of the molecules below, note its composite Z-score.
1. COC(=O)[C@@]1(Cc2ccc(F)cc2)[C@H]2c3cc(C(=O)N(C)C)n(CCc4ccc(OC)c(Br)c4)c3C[C@H]2CN1C(=O)c1ccccc1
2. CCOC(=O)C1=C[C@@H](C(C)C)N(S(=O)(=O)c2ccc(C)cc2)[C@H]1c1ccc(C(F)(F)F)cc1
3. Cc1cc(C)c(C(O)C2C=CC3C(=O)N(c4ccccc4)C(=O)C3N2Nc2ccccc2F)c(C)c1 (stereo not drawn)
4. COc1ccc(C#Cc2ccc3c(c2)[C@]2(C(=O)N3)[C@H](c3ccc(OCCO)cc3)N3[C@H](c4ccccc4)[C@H](c4ccccc4)OC(=O)[C@H]3[C@@H]2C(=O)NC[C@H](O)c2ccccc2)cc1
5. COC(=O)c1c(CC[C@@H](CO)NC(=O)N2CCC[C@H]2Cn2cc(C3(O)CCCCC3)nn2)oc(C(C)=O)c1C(=O)OC
6. C=CCC(OC(C)=O)[C@@H]1[C@@H](N(Cc2ccc(-c3ccccc3)cc2)C(=O)c2ccc(-c3ccccc3)cc2)c2cc(OCCCO)ccc2N1C(=O)c1ccc2ccccc2c1 (stereo partly drawn)

Output:
1: 0.562; 2: 0.559; 3: 0.224; 4: -0.128; 5: 0.506; 6: -0.473

For each of the molecules below, note its composite Z-score.
1. Cc1ccc(S[C@]2(C(=O)O)CC(=O)N(C3CCCCC3)[C@@H]2c2ccc(CO)cc2I)cc1
2. O=C1NC(=O)C2C1C=CC(C(O)c1ccco1)N2Nc1ccc(Cl)cc1Cl (stereo not drawn)

Output:
1: 0.258; 2: 0.731

====

- assay-details: inhibition of PAO1 biofilm formation – strain PAO1, LB-PBS medium, absorbance 600 nm, primary screen (AID 1176); also: test concentration not given here
- experimental-conditions: P. aeruginosa PAO1 growth/biofilm, A600, 12 h; higher = more signal
Note to self: values exactly at 0.5 are true. So z-score at or above 0.5 is true, below is false.

Answered examples (2):
INSERT INTO measurements (compound, answer_label) VALUES
  ('CCCNC(=O)[C@@]1(Sc2ccc(C)cc2)CC(=O)N(C2Cc3ccccc3C2)[C@@H]1c1ccc(CO)cc1I', 'true'),
  ('CCCC[C@@H](O)C1=C(COC)C[C@H]2C(=O)N(C)C(=O)[C@H]2[C@H]1CO', 'true');

Task: Reported z-score reaches at least 0.5 for COCCOC(=O)N1C(=O)[C@@]2(c3cc(C#CC4=CCCCC4)ccc31)[C@H](c1ccccc1OCCO)N1[C@H](c3ccccc3)[C@H](c3ccccc3)OC(=O)[C@H]1[C@@H]2C(=O)N1CCN(c2ncccn2)CC1 ?
Output: true

Task: // next record COCCOC(=O)N1C(=O)[C@@]2(c3ccccc31)[C@H](c1ccc(O)cc1)N1[C@H](c3ccccc3)[C@H](c3ccccc3)OC(=O)[C@H]1[C@@H]2C(=O)N1CCN(c2ncccn2)CC1
Output: true

Task: // next record CC(C)N1CC=CC23O[C@@H]4C=CCCOC(=O)C4[C@H]2C(=O)N(CCCO)[C@@H]3C1=O (stereo partly drawn)
Output: false

Task: // next record COC(=O)c1c(CC[C@@H](CO)NC(=O)N2CCC[C@H]2Cn2cc(C3(O)CCCCC3)nn2)oc(C(C)=O)c1C(=O)OC
Output: false

Task: // next record CCOC(=O)C[C@H]1[C@H](OC(=O)c2ccccc2-c2ccccc2)[C@@H](NC(=O)c2ccc3ccccc3n2)c2cc(OCCCO)ccc2N1C(=O)Cc1ccc(OC)cc1
Output: false

Task: // next record COc1ccc(C#Cc2ccc3c(c2)[C@]2(C(=O)N3)[C@H](c3ccc(OCCO)cc3)N3[C@H](c4ccccc4)[C@H](c4ccccc4)OC(=O)[C@H]3[C@@H]2C(=O)NC[C@H](O)c2ccccc2)cc1
Output: true

====

- assay-details: growth effects on S. cerevisiae YJM789 – YJM789 clinical isolate, OD600, 24 h, basal, primary screen (AID 1089);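 also: growth of clinical yeast isolate S. cerevisiae YJM 789 seeded 1000 cells per well; test concentration not given here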
- experimental-conditions: higher = more signal, called active from +8 up or from −8 down
Exercise: for every item that follows, state its recorded z-score.
Answers are plain numbers.

For each of the molecules below, note its z-score.
1. C=CCN1Cc2ccccc2[C@@H]2OC(c3ccc(OCCCO)cc3)=N[C@]2(CC=C)C1=O
2. COc1ccc([Si](C)(C)[C@@H]2[C@@H](CC(=O)N3CCC[C@H]3CO)O[C@]3(C(=O)N(Cc4cccc(N5C(=O)COc6ccccc65)c4)c4ccccc43)[C@H]2C)cc1
3. CCOc1cc(C(O)C2C=CC3C(=O)NC(=O)C3N2Nc2ccc(Cl)cc2Cl)ccc1O (centres undefined)
4. CC(=O)NCCCC[C@@H]1NC(=O)[C@@H]2C[C@H](C(=O)NCCCCCN)[C@H](c3ccc(O)cc3)N2C1=O

Output:
1. -0.98
2. -2.24
3. -1.36
4. 0.0163

====

- Tested on: Sam68 (KHDRBS1)
- assay-details: compounds binding KHDRBS1 protein – biochemical, small-molecule microarray, 635 nm fluorescence, primary screen (AID 1125);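 also: score merges 667 nm channel intensity with signal to noise over triplicate slides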
- experimental-conditions: higher = more signal
metric-name: composite z-score
Numbers only.

Solved cases (6 shown):
INSERT INTO assay_data (molecule, metric_name, numeric_readout) VALUES
  ('CCOC(=O)C[C@H]1[C@H](OC(=O)c2ccc(-c3ccccc3)cc2)[C@@H](NC(=O)CC(C)C)c2cc(OCCCO)ccc2N1C(=O)c1ccc2ccccc2n1', 'composite z-score', 0.787),
  ('CC1CC/C=C\[C@H]2OC34C=CCN(C(C)C)C(=O)[C@H]3N(CCO)C(=O)[C@@H]4C2C(=O)O1 (some centres not stated)', 'composite z-score', -0.175),
  ('CC(=O)NCCCC[C@@H]1NC(=O)[C@@H]2C[C@H](C(=O)NCCCCCN)[C@H](c3cccc(OCCO)c3)N2C1=O', 'composite z-score', 0.803),
  ('CN(C)CCCCCCNC(=O)[C@@H]1C[C@@H]2C(=O)N3CCC[C@H]3C(=O)N2[C@@H]1c1cccc(OCCO)c1', 'composite z-score', 1.31),
  ('O=C1N(CCS(=O)(=O)c2ccccc2)c2ccccc2[C@H]2OC(c3ccc(OCCCO)cc3)=N[C@@]12Cc1ccccc1', 'composite z-score', 1.29),
  ('COC(=O)[C@]1(CCS(=O)(=O)c2ccccc2)N=C(c2ccc(OCCCO)cc2)O[C@@H]1c1ccccc1N=[N+]=[N-]', 'composite z-score', 1.29);

For each of the molecules below, note its composite z-score.
1. COCCOC(=O)N1C(=O)[C@@]2(c3ccccc31)[C@H](c1ccc(O)cc1)N1[C@H](c3ccccc3)[C@H](c3ccccc3)OC(=O)[C@H]1[C@@H]2C(=O)N1CCN(c2ncccn2)CC1
2. CCCC=C(CCC)[C@@H](NP(=O)(c1ccccc1)c1ccccc1)c1ccc(-c2ccccc2)cc1
3. COc1ccc([Si](C)(C)[C@@H]2[C@@H](CC(=O)N(CCO)Cc3ccccc3)O[C@]3(C(=O)N(Cc4cccc(N5CCCCC5=O)c4)c4ccccc43)[C@H]2C)cc1
4. CCCCCN1CC=CC23O[C@@H]4/C=C\CCCOC(=O)C4[C@H]2C(=O)N(C(C)CO)[C@@H]3C1=O (some centres not stated)
5. [N-]=[N+]=NCc1ccccc1[C@@H]1OC(c2ccc(OCCCO)cc2)=N[C@]1(CCS(=O)(=O)c1ccccc1)C(=O)O
6. CCCC=C(CCC)[C@@H](NS(=O)(=O)c1ccc(C(F)(F)F)cc1)c1ccccc1

Output:
1: 1.2; 2: 1.34; 3: 0.646; 4: 0.0008; 5: 0.585; 6: 0.42

====

- target: Alpha-bungarotoxin (Bungarus multicinctus)
- assay-details: compounds binding labelled alpha-BTX control protein – biochemical, small-molecule microarray, Alexa647 label, 635/667 nm fluorescence, artefact control for SMM control protein annotation, profiling panel (AID 1117)
- experimental-conditions: alpha-BTX-A647 binding fluorescence, higher = more signal
Note to self: values exactly at 0.3 are fulfilled. So composite z-score at or above 0.3 is fulfilled, below is not fulfilled.

Answered examples (8):
INSERT INTO measurements (molecule, target, answer_label) VALUES
  ('COc1ccc(CCNC(=O)[C@@]2(c3ccc([N+](=O)[O-])cc3)CC(=O)N(C3CCCCC3)[C@@H]2c2ccc(CO)cc2)cc1', 'Alpha-bungarotoxin (Bungarus multicinctus)', 'fulfilled'),
  ('CCCN1C(=O)[C@]2(Cc3ccccc31)N=C(c1ccc(OCCCO)cc1)O[C@@H]2c1ccccc1', 'Alpha-bungarotoxin (Bungarus multicinctus)', 'fulfilled'),
  ('O=C(Cc1ccccc1)[C@H]1C2C=CCCC(c3ccccc3)=C2CN1Cc1ccccc1 (stereo not given in full)', 'Alpha-bungarotoxin (Bungarus multicinctus)', 'not fulfilled'),
  ('C=CCC(OC(C)=O)[C@@H]1[C@@H](N(Cc2ccc(-c3ccccc3)cc2)C(=O)c2ccc(-c3ccccc3)cc2)c2cc(OCCCO)ccc2N1C(=O)c1ccc2ccccc2c1 (stereo not given in full)', 'Alpha-bungarotoxin (Bungarus multicinctus)', 'not fulfilled'),
  ('C=CC[C@@H](OC(=O)Nc1ccc(OC)cc1)c1ccc(O)c(F)c1', 'Alpha-bungarotoxin (Bungarus multicinctus)', 'not fulfilled'),
  ('CCCCCC1=C2CNC(C)(C(=O)OC)C=C2C(C)C1=O (stereo not given)', 'Alpha-bungarotoxin (Bungarus multicinctus)', 'not fulfilled'),
  ('C[N+](C)(C)CCCCCCNC(=O)[C@@H]1C[C@@H]2C(=O)N3CCC[C@H]3C(=O)N2[C@@H]1c1ccc(O)cc1', 'Alpha-bungarotoxin (Bungarus multicinctus)', 'fulfilled'),
  ('COC(=O)[C@@]1(Cc2ccccc2)[C@H]2c3cc(C(=O)N(C)C)n(Cc4ccc(C)o4)c3C[C@H]2CN1C(=O)c1ccccc1', 'Alpha-bungarotoxin (Bungarus multicinctus)', 'fulfilled');

Task: Reported composite z-score reaches at least 0.3 for C=CCOC(=O)[C@@]1(Cc2ccccc2)C[C@H]2CO[C@H](c3ccc(OC)cc3)N2C1=O ?
Output: fulfilled

Task: // next record C=CCN1C(=O)[C@]2(CCC(=O)OC(C)(C)C)N=C(c3ccc(OCCCO)cc3)O[C@@H]2c2ccccc21
Output: fulfilled
